# credit: ChEMBL document CHEMBL4513216

Tested on: Plasmodium berghei
Assay: Screen against P. berghei liver stage (PbLuc), transformed with Luciferase, at 10uM
Format: functional, HepG2
Details: tested at 10 uM
Among all 69,000 compounds or so, about 8,600 (12%) showed an effect of 50% or more. Only a selection was taken, and strong results are over-represented in it overall.
measured-attribute: INHIBITION (%)
Numbers only here, please. The scale is %.

Measured INHIBITION, COCc1cc(CNC(=O)c2cccc3c2OCC3)n[nH]1 : 14.6

Short answer for Cc1cccc(NC2CCN(C(=O)Nc3cccc4[nH]ccc34)CC2)n1 : INHIBITION was 76.1

Per the record, CN(Cc1cc(C(C)(C)C)n[nH]1)C(=O)c1ccccc1C1CCNC1 (stereo not drawn) has INHIBITION of -23.2

GET /value?item= COc1ccc(C(=O)NC2CCN(c3ncccn3)CC2)cc1F &field=INHIBITION returns 46.1

Query O=C(NCc1ccc2c(c1)OCO2)c1ccccc1C1CCNC1 (stereo not drawn) yields INHIBITION of 31

Notebook: COCCN1C(=O)CCC12CCCN(C(=O)NC(C)C)CC2 (stereo not drawn) , INHIBITION read as 18.6

Looking up CC(=O)N1CCC(c2ccnc(Nc3ccc(C)cn3)n2)C1 (stereo not drawn) , I see its INHIBITION listed as -55

INHIBITION for CN(C)CCN1C(=O)CCC12CCCN(C(=O)CC1CC1)CC2 (stereo not drawn) is 51.9

So for Cc1ccc(Nc2nccc(C3CN(CC(N)=O)C3)n2)nc1 , the logged INHIBITION turned out to be 46.6

Noted for COc1ccc(N2CCC(NC(=O)c3ccc(C#N)cc3)CC2)cc1 : its INHIBITION reads 41.8

For reference, reported INHIBITION for COCCC(=O)N1CCCC2(CCC(=O)N2CCOC)CC1 (stereo not drawn) stands at 54.9

Field INHIBITION (entry CCc1ncc(-c2nccn2-c2cccc(CC(=O)O)c2)cn1 ) reads 16.3

Reported INHIBITION for CC(C)CC(=O)N1CCCC1c1nccnc1Nc1ncccn1 (stereo not drawn) was 32.3

INHIBITION for COc1ccsc1C(=O)NC1CCN(c2ccc(C#N)cc2)CC1 is 52.6

So, CCc1nc(CN(CC(N)=O)C(C)C)cs1 ? Its INHIBITION was 22.5

Looking up Cc1nn(C)cc1-c1ccnc(N(C)Cc2noc(C(C)C)n2)n1 , I found its INHIBITION recorded as -147

Kindly note the recorded INHIBITION for CNC(=O)Cc1ccc(-n2ccnc2-c2cccc(C(=O)O)c2)cc1 , which is 15.6

INHIBITION for Cc1noc(CN(Cc2cccc(C#N)c2)Cc2ccco2)n1 is -9.82

Value of measured INHIBITION for the entry Cc1cccc(NC2CCN(C(=O)Nc3ccc(F)c(F)c3)CC2)n1 : 67.4

Measured INHIBITION of Cc1cccc(NC2CCN(C(=O)Nc3cc(F)ccc3F)CC2)n1 : -7.35

# compound Cc1cc(C)nc(CN(C)C(=O)c2ccccc2C2CCNC2)c1 (stereo not drawn) ; its INHIBITION = 47.2

Recorded result, c1cc(CN2CCC3(CCOCC3COCC3CC3)CC2)co1 (stereo not drawn) , INHIBITION: 38.3

# INHIBITION (compound: CNC(=O)c1ccc(C2CN(C(=O)c3c[nH]nc3C)CCO2)nc1 (stereo not drawn) ) is -20.2

Lab book: INHIBITION of CC(C)N(CC(N)=O)Cc1csc(COc2ccc(F)cc2)n1 noted as 81.5

Lab note: measured INHIBITION of O=C(CCc1ccc(Cl)cc1)NC1CCN(c2cccc(F)c2)CC1 was 47.3

INHIBITION reported for this compound Cc1cccc(NC2CCN(C(=O)Nc3cn[nH]c3)CC2)n1 : 28.8

Input CC(CN1CCOCC1)OC(=O)c1ccccc1Cl (stereo not drawn) . Output INHIBITION: 35.8

The reported INHIBITION of the compound CCOc1ccc(CN(CC)C(=O)c2ccc(C)[nH]c2=O)cc1OC was 20.85

Documented INHIBITION of NC(=O)N1CCC(NCc2cc(C(F)(F)F)ccc2Cl)CC1 : 17.8

Given item OCCN1CCC2(CC1)CC(NCc1ccccn1)c1ccccc1O2 (stereo not drawn) , the value recorded as its INHIBITION is 33

Form field INHIBITION, entry COCc1nc(CN(CC(N)=O)C(C)C)cs1 : 42

Record summary for Cc1nn(C)c(C)c1-c1ccnc(N(C)Cc2nc(C(C)C)no2)n1 : reported INHIBITION = 68.2

Recorded result, CC(C)Cc1cc(CNC(=O)c2ccccc2C2CCNC2)no1 (stereo not drawn) , INHIBITION: 68.4

The measured INHIBITION associated with CC(=O)c1ccc(C(=O)N2C[C@H]3CC[C@@H](C2)N(CC2CCC2)C3)s1 reads -92.2

// sample NC(=O)CCCNC(=O)Cc1csc(Cc2ccccn2)n1 , its INHIBITION was 46.6

Lab book: INHIBITION of COc1cccc(CN(Cc2ccco2)Cc2cnc(C)n2C)c1 noted as 65.7

In plain terms, COCCN1C(=O)CCC12CCCN(C(=O)CC1CC1)CC2 (stereo not drawn) has a documented INHIBITION of -15.9

INHIBITION in this record for Cc1ccccc1N1CC2(CCN(S(=O)(=O)c3cccs3)C2)CC1=O (stereo not drawn) : 35.7

Note to self: INHIBITION recorded for Cc1cccnc1Nc1nccc(C2CN(CC(N)=O)C2)n1 was -4.51

The reported value for Cc1ccc(Nc2nccc(C3CCCN(CC(=O)N(C)C)C3)n2)nc1 (stereo not drawn) in terms of INHIBITION is 79.6

For COCCN1CC[C@]2(CN(Cc3ccccn3)C[C@H]2C)C1=O the compound record lists INHIBITION as -2.03

// field: INHIBITION; key: CC(C)Cc1cc(CNC(=O)c2cccc3c2OCC3)no1 ; value = 52.6

Sample O=C(c1ccnnc1)N1C[C@@H]2COC[C@]2(COCC2CC2)C1 ; INHIBITION observed: 46.2

// INHIBITION lookup, compound = COc1cccc(CN(Cc2ccco2)Cc2[nH]cnc2C)c1 , result: 87.7

get_value(item= CN(CCCOc1ccccc1Cl)C(=O)CN1CCNC1=O , readout=INHIBITION) returns 17

What the record says about Cc1csc(CCCNc2ccc(S(N)(=O)=O)cc2C#N)n1 : INHIBITION is 66.5

Lab note: CC(C)Cc1cc(CNC(=O)c2cccc3c2NCCC3)no1 gave INHIBITION of 44.3

Sure, the documented INHIBITION for O=C(CCc1ccsc1)NC1CCN(c2cccc(F)c2)CC1 is 59.3
